biological target: guinea pig NK1 receptor (guinea pig, UniProt P30547 1-407); experiment: cell-based or functional assay
Sequence (P30547 whole entry): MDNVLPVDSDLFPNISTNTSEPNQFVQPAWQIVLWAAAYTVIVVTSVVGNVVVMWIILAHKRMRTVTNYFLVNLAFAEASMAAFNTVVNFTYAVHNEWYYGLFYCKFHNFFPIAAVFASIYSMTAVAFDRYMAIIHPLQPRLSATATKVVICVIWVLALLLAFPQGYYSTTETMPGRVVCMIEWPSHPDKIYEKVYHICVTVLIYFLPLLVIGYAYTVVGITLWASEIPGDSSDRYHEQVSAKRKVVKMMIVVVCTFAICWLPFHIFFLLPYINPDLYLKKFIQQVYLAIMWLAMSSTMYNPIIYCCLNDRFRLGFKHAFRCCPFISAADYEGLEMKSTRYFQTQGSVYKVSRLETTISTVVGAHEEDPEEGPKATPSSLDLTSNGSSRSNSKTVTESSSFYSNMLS
Bridge positions count the residues as written; N and C are the ends. Square brackets hold non-standard residues; d marks the D form. Ends that are not written are not given here. * marks the point of attachment. Glc = O-glucosyl on Ser side chain (Ser(OGlu)/Ser(OGlc)); NH(3,5-(CF3)2-benzyl) = FC(F)(F)c1cc(CN*)cc(C(F)(F)F)c1; OBzl(3,5-(CF3)2) = FC(F)(F)c1cc(CO*)cc(C(F)(F)F)c1; NH‑Bn(CF3)2 = C-terminal Bn(CF3)2 amide; Dmt = Cc1cc(O)cc(C)c1C[C@H](N)C(=O)O; Nle = CCCC[C@H](N)C(=O)O
readout_type: GPI/LMMP SP antagonist Ke (nM)
Report the value in nM with no unit label.

Example entries begin here.
1. Y[dA]GFFPLW-{OBzl(3,5-(CF3)2)} [TyrDAlaGlyPhePheProLeuTrpOBn(CF3)2 (TY003)]
14.4
2. Y[dC]GF[Nle]PCW-{NH(3,5-(CF3)2-benzyl)} (disulfide 2-7, also called [D-Cys2, Cys7]TY027) [Tyr[DCysGlyPheNleProCys]TrpNHBn(CF3)2 (TY035)]
2.2
3. Y[dA]GF[Nle]PLS(Glc)W-{NH‑Bn(CF3)2} [TyrDAlaGlyPheNleProLeuSer(OGlu)TrpNHBn(CF3)2 (TY055)]
8.4
4. [Dmt][dA]GF[Nle]PS(Glc)W-{NH‑Bn(CF3)2} [DmtDAlaGlyPheNleProSer(OGlu)TrpNHBn(CF3)2 (TY056)]
1.2

The binder identified as Y[dA]GFMPLW-{OBzl(3,5-(CF3)2)} [TyrDAlaGlyPheMetProLeuTrpOBn(CF3)2 (TY005)] registered its GPI/LMMP SP antagonist Ke at 24.7
